- System: Escherichia coli
- Assay Notes: Antibacterial activity against Escherichia coli MC4100 assessed as growth inhibition after 72 hrs by broth microdilution method
- Type: functional
- Condition Description: MC4100, 72 h
Note to self: MIC under 30 µM means Condition met, ties and anything higher get Condition not met.

CCCCCCCCCCCCCCCC[N+](C)(C)CC[N+](C)(C)CCCCCCCCCC    Condition met
CCCCCCCCCCCCCCCCCCCC[N+](C)(C)CC[N+](C)(C)CCCCCCCCCCCC    Condition not met
CCCCCCCCCCCC[N+](C)(C)CCN(C)C    Condition not met
CCCCCCCCCCCCCC[N+](C)(C)CC[N+](C)(C)CCCCCCCCCCCC    Condition met
CCCCCCCCCC[N+](C)(C)CCN(C)C    Condition not met

Bench note: check whether CCCCCCCCCCCCCCCCCC[N+](C)(C)CC[N+](C)(C)CCCCCCCCCCCCCCCC shows MIC below 30 µM Condition not met

Bench note: check whether CCCCCCCC[N+](C)(C)CCN(C)C shows MIC below 30 µM Condition not met

Bench note: check whether CCCCCCCC[N+](C)(C)CC[N+](C)(C)CCCCCCCC shows MIC below 30 µM Condition not met

====

Quick list: MIC per entry.
- Tested on: Pseudomonas aeruginosa
- Assay Notes: Antibacterial activity against wild-type Pseudomonas aeruginosa PAO1 assessed as growth inhibition after 72 hrs by broth microdilution method
- Assay type: functional
- Condition Description: PAO1, 72 h
Give the number; µM is assumed, so skip it.

Guide cases for MIC, answers given:
CCCCCCCCCCCCCCCCCC[N+](C)(C)CC[N+](C)(C)CCCCCCCC    32
CCCCCCCCCCCCCCCCCCCC[N+](C)(C)CC[N+](C)(C)CCCCCCCC    32
CCCCCCCCCCC[N+](C)(C)CC[N+](C)(C)CCCCCCCCCC    4

Return the recorded MIC value; entry: CCCCCCCCCCCCCCCCCC[N+](C)(C)CC[N+](C)(C)CCCCCCCCCCCC 32
